studySystem: human sEH (Homo sapiens, UniProt P34913)
Sequence (P34913 whole entry): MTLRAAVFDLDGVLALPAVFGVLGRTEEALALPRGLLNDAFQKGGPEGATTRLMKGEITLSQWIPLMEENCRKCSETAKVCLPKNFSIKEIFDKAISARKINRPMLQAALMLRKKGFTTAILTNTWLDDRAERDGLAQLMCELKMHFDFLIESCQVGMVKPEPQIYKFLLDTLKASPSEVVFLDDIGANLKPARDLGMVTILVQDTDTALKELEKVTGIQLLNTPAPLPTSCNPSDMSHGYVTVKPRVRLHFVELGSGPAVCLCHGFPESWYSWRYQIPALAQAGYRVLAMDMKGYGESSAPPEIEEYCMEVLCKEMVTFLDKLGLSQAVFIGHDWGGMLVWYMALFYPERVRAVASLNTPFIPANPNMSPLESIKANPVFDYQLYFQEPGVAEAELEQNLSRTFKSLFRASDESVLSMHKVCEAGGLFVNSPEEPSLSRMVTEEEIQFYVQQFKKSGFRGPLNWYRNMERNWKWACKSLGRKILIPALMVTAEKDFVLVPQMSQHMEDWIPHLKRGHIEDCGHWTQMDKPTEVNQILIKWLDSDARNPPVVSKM
measurementDescription: biochemical
Format: biochemical
measuredParameter: pIC50
Quick note: pIC50 means taking -log10 of the concentration in moles per liter.

Ask | # lookup: pIC50 of CCN(CC)CCNC(=O)c1c(C)[nH]c(/C=C2\C(=O)Nc3ccc(F)cc32)c1C
Reply | 4.26

---

measurementDescription: in vivo
conditionInfo: male, Swiss-Webster, mouse, po, 5 mg/kg
measuredParameter: Cmax

Ask | Which Cmax is reported for this compound? CNC(=O)c1cc(Oc2ccc(NC(=O)Nc3ccc(Cl)c(C(F)(F)F)c3)cc2)ccn1
Reply | ~120 nM

---

measurementDescription: in vivo
conditionInfo: male, Swiss-Webster, mouse, po, 5 mg/kg
measuredParameter: half-life

Ask | Field request: half-life | item: CNC(=O)c1cc(Oc2ccc(NC(=O)Nc3ccc(Cl)c(C(F)(F)F)c3)cc2)ccn1
Reply | 2.6 h
